Consider the following compounds and their measured Emax readings.
Molecular target: human μ-opioid receptor (OPRM1) (Homo sapiens, UniProt P35372)
Construct: host or cells: cAMP Hunter CHO-K1 (Chinese hamster ovary) cells
Sequence (P35372 whole entry): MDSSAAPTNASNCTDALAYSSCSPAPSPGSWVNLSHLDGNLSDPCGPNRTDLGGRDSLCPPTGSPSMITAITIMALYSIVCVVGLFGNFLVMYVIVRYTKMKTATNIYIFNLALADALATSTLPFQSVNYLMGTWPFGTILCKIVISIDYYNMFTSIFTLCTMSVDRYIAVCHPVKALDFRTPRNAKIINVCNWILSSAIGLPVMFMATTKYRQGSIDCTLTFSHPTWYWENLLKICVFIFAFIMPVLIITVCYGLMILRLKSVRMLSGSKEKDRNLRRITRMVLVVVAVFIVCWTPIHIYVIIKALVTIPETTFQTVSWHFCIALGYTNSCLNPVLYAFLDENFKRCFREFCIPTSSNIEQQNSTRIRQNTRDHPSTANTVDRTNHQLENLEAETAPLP
Assay: cell-based
Details: read-out: MOR Agonist %Emax ± SEM
test.readout: Emax

{"columns": ["compound.string", "system", "test.readout", "obs.value"],
 "data": [
  ["CNC[C@@H]1[C@H]2CCC[C@]1(c1cccc(O)c1)CCN2CCc1ccccc1", "human μ-opioid receptor (OPRM1) (Homo sapiens, UniProt P35372)", "Emax", "94%"],
  ["N#CC[C@@H]1[C@@H]2CCC[C@@]1(c1cccc(O)c1)CCN2CCc1ccccc1", "human μ-opioid receptor (OPRM1) (Homo sapiens, UniProt P35372)", "Emax", "101%"],
  ["N#CC[C@H]1[C@H]2CCC[C@]1(c1cccc(O)c1)CCN2CCc1ccccc1", "human μ-opioid receptor (OPRM1) (Homo sapiens, UniProt P35372)", "Emax", "99%"],
  ["N#CC=C1[C@@H]2CCC[C@@]1(c1cccc(O)c1)CCN2CCc1ccccc1", "human μ-opioid receptor (OPRM1) (Homo sapiens, UniProt P35372)", "Emax", "101%"],
  ["CNC[C@H]1[C@H]2CCC[C@]1(c1cccc(O)c1)CCN2CCc1ccccc1", "human μ-opioid receptor (OPRM1) (Homo sapiens, UniProt P35372)", "Emax", "97%"],
  ["N#CC[C@H]1[C@@H]2CCC[C@@]1(c1cccc(O)c1)CCN2CCc1ccccc1", "human μ-opioid receptor (OPRM1) (Homo sapiens, UniProt P35372)", "Emax", "89.6%"],
  ["N[C@@H]1[C@H]2CCC[C@]1(c1cccc(O)c1)CCN2CCc1ccccc1", "human μ-opioid receptor (OPRM1) (Homo sapiens, UniProt P35372)", "Emax", "91%"]
]}
